study target: MMP-3 (Homo sapiens)
Construct: Truncated Prostromelysin-257 was expressed in a soluble form in E.coli; made in house; host or cells: E. coli
Sequence (P08254 100-274 limits assumed): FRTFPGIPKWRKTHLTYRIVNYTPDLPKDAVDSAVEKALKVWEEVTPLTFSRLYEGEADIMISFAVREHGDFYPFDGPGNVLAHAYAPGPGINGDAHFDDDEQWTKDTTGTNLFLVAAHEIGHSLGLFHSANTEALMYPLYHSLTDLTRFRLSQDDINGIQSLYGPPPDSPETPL
method description: Primary Thiopeptilide MMP-3 Inhibition Assay
Assay type: biochemical
test parameters: at 5 μM; read-out: MMP-3 Thiopep. % inhibition
For each entry below, report its inhibition at 5 µM value.
Kindly answer with a numeric value in %, unit omitted.

Incoming: I am curious: what inhibition at 5 µM value has been reported for O=C(O)CCC1(C(=O)c2ccc(-c3ccc(Cl)cc3)cc2)CCCC1 [Example 340] ?
Outgoing: 14

Incoming: I am curious: what inhibition at 5 µM value has been reported for O=C(c1ccc(-c2ccc(Cl)cc2)cc1)[C@H]1CC[C@H]1C(=O)O (relative stereo) [Example 290] ?
Outgoing: 35

Incoming: I am curious: what inhibition at 5 µM value has been reported for O=C(O)[C@@H]1C[C@H]1C(=O)c1ccc(-c2ccc(Cl)cc2)cc1 (relative stereo) [Example 293, reference compound] ?
Outgoing: 16

Incoming: I am curious: what inhibition at 5 µM value has been reported for CC(CC(=O)c1ccc(-c2ccc(Cl)cc2)cc1)(Sc1ccccc1)C(=O)O (stereo not drawn) [Example 245] ?
Outgoing: 55

Incoming: I am curious: what inhibition at 5 µM value has been reported for CC(C)(CC(=O)O)CC(=O)c1ccc(-c2ccc(Cl)cc2)cc1 [Example 334] ?
Outgoing: 42

Incoming: I am curious: what inhibition at 5 µM value has been reported for CC(C)CC(CC(=O)c1ccc(-c2ccc(O)cc2)cc1)C(=O)O (stereo not drawn) [Example 31] ?
Outgoing: 56

Incoming: I am curious: what inhibition at 5 µM value has been reported for O=C(O)CCC(=O)c1ccc(-c2cccc(Cl)c2)cc1 [Example 12, reference compound] ?
Outgoing: 17

Incoming: I am curious: what inhibition at 5 µM value has been reported for O=C(c1ccc(-c2ccc(Cl)cc2)cc1)[C@H]1C[C@H]1C(=O)O (relative stereo) [Example 292, reference compound] ?
Outgoing: 21

Incoming: I am curious: what inhibition at 5 µM value has been reported for CC1=CC[C@@H](C(=O)c2ccc(-c3ccc(Cl)cc3)cc2)[C@H](C(=O)O)C1 (relative stereo) [Example 329] ?
Outgoing: 58

Incoming: I am curious: what inhibition at 5 µM value has been reported for O=C(CC(CCCc1ccccc1)C(=O)O)c1ccc(-c2cc(C(F)(F)F)cc(C(F)(F)F)c2)cc1 (stereo not drawn) [Example 79] ?
Outgoing: 12

Incoming: I am curious: what inhibition at 5 µM value has been reported for O=C(C[C@@H](C[S+]([O-])c1ccccc1)C(=O)O)c1ccc(-c2ccc(Cl)cc2)cc1 (stereo partly drawn) [Example 246] ?
Outgoing: 14

Incoming: I am curious: what inhibition at 5 µM value has been reported for O=C(CC(CCCc1ccccc1)C(=O)O)c1ccc(-c2cccc(C(F)(F)F)c2)cc1 (stereo not drawn) [Example 81] ?
Outgoing: 30
